tested on: Klebsiella pneumoniae ATCC 700603
Endpoint label: MIC (µg/mL)

>>> experimental_result("C[C@H]1COc2c(N3CCN(C)CC3)c(F)cc3c(=O)c(C(=O)O)cn1c23 [Levofloxacin, levofloxacin, reference compound]")
0.5
>>> experimental_result("CC(C)(N)[C@H](NC(=O)N1CCN(C#CC#Cc2ccc([N+](=O)[O-])cc2)CC1)C(=O)NO [I-2]")
2
>>> experimental_result("CC(C)(N)[C@H](NC(=O)c1ccc(C#CC#Cc2ccc(CN3CCCCC3)cc2)cc1O)C(=O)NO [I-3]")
4
>>> experimental_result("CO[C@H]1CCC[C@@H]1C#CC#Cc1ccc(C(=O)N[C@H](C(=O)NO)C(C)(C)N)cc1 [I-1]")
2
